- PROTOCOL: Elimination half life in human at 150 mg, po administered as single dose
- Assay type: ADME, organism-based
- TEST_CONTEXT: in vivo
QUANTITY_MEASURED: half-life (h)
Write the answer as a number in h, unit excluded.

**Q:** // query half-life value for entry CC[C@H]1OC(=O)[C@H](C)[C@@H](O[C@H]2C[C@@](C)(OC)[C@@H](O)[C@H](C)O2)[C@H](C)[C@@H](O[C@@H]2O[C@H](C)C[C@H](N(C)C)[C@H]2O)[C@](C)(O)C[C@@H](C)/C(=N\OCOCCOC)[C@H](C)[C@@H](O)[C@]1(C)O [ROXITHROMYCIN]
**A:** 10.5
